- measured-target: Phosphatidylinositol 4,5-bisphosphate 3-kinase catalytic subunit gamma isoform (Homo sapiens, UniProt P48736)
- Sequence (P48736 whole entry, canonical isoform): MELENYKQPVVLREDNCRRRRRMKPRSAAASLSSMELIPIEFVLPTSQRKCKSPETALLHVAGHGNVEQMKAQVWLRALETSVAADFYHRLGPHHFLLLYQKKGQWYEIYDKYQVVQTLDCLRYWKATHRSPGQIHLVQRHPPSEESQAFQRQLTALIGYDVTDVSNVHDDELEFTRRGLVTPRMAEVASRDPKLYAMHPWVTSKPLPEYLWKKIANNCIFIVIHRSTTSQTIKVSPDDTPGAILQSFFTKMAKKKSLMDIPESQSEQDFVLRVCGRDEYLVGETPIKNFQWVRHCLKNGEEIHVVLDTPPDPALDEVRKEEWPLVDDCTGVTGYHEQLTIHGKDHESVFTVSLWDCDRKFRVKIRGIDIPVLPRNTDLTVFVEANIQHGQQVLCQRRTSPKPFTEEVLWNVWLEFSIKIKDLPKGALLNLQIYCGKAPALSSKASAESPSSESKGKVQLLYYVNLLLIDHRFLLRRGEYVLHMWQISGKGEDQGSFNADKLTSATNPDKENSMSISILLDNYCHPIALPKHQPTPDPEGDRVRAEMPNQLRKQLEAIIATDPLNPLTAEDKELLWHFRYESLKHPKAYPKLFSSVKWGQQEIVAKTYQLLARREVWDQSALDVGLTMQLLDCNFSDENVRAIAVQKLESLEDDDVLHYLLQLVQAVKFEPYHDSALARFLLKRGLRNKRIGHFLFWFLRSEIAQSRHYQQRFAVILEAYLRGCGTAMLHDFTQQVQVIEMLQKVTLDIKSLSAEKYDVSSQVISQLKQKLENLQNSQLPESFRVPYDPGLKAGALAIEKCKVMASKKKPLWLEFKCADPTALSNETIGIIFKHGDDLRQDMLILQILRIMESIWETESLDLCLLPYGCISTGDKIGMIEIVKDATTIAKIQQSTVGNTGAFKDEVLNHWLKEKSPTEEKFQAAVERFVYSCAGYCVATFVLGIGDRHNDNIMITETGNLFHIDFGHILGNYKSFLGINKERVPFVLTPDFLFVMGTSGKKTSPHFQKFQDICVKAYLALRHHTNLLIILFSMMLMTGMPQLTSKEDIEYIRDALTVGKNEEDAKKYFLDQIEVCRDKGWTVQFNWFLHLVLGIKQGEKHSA
- assay-method-text: Inhibition of His-tagged human p110gamma expressed in SF9/Baculovirus system by SPA
measurement-type: pIC50
Convention used: pIC50 is expressed as -log10 of the molar concentration.

Req: Entry under review: Cc1ccc([N+](=O)[O-])cc1S(=O)(=O)N(C)/N=C/c1cnc2ccc(Br)cn12.Cl . Reported pIC50?
Resp: 7.40

----------
- measured-target: Phosphatidylinositol 4-phosphate 3-kinase C2 domain-containing subunit beta (Homo sapiens)
- Sequence (O00750 whole entry, the tested form may be a part): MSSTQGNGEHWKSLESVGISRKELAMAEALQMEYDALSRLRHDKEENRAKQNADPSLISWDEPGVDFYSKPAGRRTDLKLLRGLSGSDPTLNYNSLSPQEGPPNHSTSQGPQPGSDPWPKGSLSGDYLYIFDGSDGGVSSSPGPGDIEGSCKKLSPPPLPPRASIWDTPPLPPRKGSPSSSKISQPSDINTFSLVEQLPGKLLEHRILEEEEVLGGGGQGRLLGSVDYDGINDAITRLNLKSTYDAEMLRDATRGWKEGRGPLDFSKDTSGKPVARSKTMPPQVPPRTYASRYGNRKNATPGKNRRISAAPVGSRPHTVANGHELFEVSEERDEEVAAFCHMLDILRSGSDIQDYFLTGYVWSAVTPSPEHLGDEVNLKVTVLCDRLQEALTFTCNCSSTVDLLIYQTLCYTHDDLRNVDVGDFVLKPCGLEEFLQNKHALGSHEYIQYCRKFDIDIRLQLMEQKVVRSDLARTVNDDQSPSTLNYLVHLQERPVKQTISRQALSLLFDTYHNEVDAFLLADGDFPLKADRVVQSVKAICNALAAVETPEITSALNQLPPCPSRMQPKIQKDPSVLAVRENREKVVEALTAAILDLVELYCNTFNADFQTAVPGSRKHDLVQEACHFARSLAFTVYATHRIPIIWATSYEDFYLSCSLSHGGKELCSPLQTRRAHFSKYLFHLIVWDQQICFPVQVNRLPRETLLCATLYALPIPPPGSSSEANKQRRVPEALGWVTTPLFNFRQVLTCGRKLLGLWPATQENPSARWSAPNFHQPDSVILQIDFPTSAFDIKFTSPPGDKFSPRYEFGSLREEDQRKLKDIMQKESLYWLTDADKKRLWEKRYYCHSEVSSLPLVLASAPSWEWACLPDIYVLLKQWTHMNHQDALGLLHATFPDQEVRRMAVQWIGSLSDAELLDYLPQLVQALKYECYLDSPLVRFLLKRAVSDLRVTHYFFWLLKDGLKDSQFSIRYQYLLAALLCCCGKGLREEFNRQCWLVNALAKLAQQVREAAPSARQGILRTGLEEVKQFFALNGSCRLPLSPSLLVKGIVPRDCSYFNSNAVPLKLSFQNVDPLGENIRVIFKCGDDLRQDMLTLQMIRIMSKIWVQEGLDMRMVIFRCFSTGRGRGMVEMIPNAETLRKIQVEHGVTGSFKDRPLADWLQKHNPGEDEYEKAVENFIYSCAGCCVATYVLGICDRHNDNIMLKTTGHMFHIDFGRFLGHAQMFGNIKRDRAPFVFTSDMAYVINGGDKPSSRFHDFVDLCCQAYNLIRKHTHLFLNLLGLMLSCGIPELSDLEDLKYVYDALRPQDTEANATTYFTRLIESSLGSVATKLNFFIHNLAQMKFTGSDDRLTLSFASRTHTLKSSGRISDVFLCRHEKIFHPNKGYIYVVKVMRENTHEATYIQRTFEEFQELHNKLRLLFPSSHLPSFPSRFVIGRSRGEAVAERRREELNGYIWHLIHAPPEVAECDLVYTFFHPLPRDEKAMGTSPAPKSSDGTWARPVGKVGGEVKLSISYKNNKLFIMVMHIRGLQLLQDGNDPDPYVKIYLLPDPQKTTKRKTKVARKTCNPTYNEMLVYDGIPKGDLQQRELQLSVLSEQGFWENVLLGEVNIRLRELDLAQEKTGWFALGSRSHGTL
- assay-method-text: Inhibition of glu-tagged PI3K C2-beta expressed in SF9/Baculovirus system by SPA
measurement-type: IC50 (nM)
The answer is to be given in nM; state only the numeric part.

Req: Dear colleague, I am looking for the recorded IC50 of the following compound: Cc1ccc([N+](=O)[O-])cc1S(=O)(=O)N(C)/N=C/c1cnc2ccc(Br)cn12.Cl
Resp: 100

----------
- Tested on: A-375
- assay-method-text: Inhibition of serum-induced proliferation of human A375 cells
- Type: functional, cell-based
measurement-type: IC50 (µM)
All answers are understood in µM, so give the number only.

Example cases with answers are listed next.
- compound: "Cc1ccc([N+](=O)[O-])cc1S(=O)(=O)N(C)/N=C/c1cnc2ccc(F)cn12"
  measured-target: "A-375"
  IC50, µM: 0.18
- compound: "Cc1ccc([N+](=O)[O-])cc1S(=O)(=O)N(C)/N=C/c1cnc2ccc(C(N)=O)cn12"
  measured-target: "A-375"
  IC50, µM: 8.96
- compound: "C/C(=N\\N(C)S(=O)(=O)c1cc([N+](=O)[O-])ccc1C)c1cnc2ccc(Br)cn12"
  measured-target: "A-375"
  IC50, µM: 20
- compound: "Cc1ccc([N+](=O)[O-])cc1S(=O)(=O)N/N=C/c1cnc2ccc(Br)cn12"
  measured-target: "A-375"
  IC50, µM: 9

Below: the item to evaluate.
Req: Entry O=c1cc(N2CCOCC2)oc2c(-c3ccccc3)cccc12 [LY-294002] : reported IC50 = ?
Resp: 8.4

----------
- measured-target: Phosphatidylinositol 4,5-bisphosphate 3-kinase catalytic subunit alpha isoform (Bos taurus)
- assay-method-text: Inhibition of GST-tagged bovine p110-alpha expressed in SF9/Baculovirus system by SPA
measurement-type: log10 of IC50 (log10 of the value in nM)
// units: nM (pre-log); metric: IC50; scale: log10

Consider the following illustrative entries.
- line-notation: "C/C(=N\\NS(=O)(=O)c1cc([N+](=O)[O-])ccc1C)c1cnc2ccc(Br)cn12"
  measurement-type: "log10 of IC50"
  test-value: 1.23
- line-notation: "Cc1ccc([N+](=O)[O-])cc1S(=O)(=O)N(C)/N=C/c1cnc2ccc(C#N)cn12"
  measurement-type: "log10 of IC50"
  test-value: -0.59
- line-notation: "C/C(=N\\NS(=O)(=O)c1cc([N+](=O)[O-])ccc1C)c1c(C)nc2ccc(Br)cn12"
  measurement-type: "log10 of IC50"
  test-value: 2.60

Req: Sample Cc1ccc([N+](=O)[O-])cc1S(=O)(=O)N(C)/N=C/c1cnc2ccc(C(F)(F)F)cn12 — what was its log10 of IC50?
Resp: 1.15

Req: Give its log10 of IC50 value. Item: Cc1ccc([N+](=O)[O-])cc1S(=O)(=O)N(C)/N=C/c1cnc2ccc(Cl)cn12
Resp: -0.11

Req: Could you share which log10 of IC50 value was measured for Cc1ccc([N+](=O)[O-])cc1S(=O)(=O)N(C)/N=C/c1cnc2ccc(F)cn12 ?
Resp: 0.72

Req: Value lookup for log10 of IC50; key = C/C(=N\N(C)S(=O)(=O)c1cc([N+](=O)[O-])ccc1C)c1c(C)nc2ccc(Br)cn12
Resp: 2.23

Req: Please give the measured log10 of IC50 for this molecule: Cc1ccc([N+](=O)[O-])cc1S(=O)(=O)N/N=C/c1cnc2ccc(Br)cn12
Resp: 1.32

Req: For the molecule Cc1ccc2ncc(/C=N/N(C)S(=O)(=O)c3cc([N+](=O)[O-])ccc3C)n2c1 , what log10 of IC50 is on record?
Resp: 0.78

----------
- measured-target: Phosphatidylinositol 4,5-bisphosphate 3-kinase catalytic subunit alpha isoform (Bos taurus, UniProt P32871)
- Sequence (P32871 whole entry, canonical isoform): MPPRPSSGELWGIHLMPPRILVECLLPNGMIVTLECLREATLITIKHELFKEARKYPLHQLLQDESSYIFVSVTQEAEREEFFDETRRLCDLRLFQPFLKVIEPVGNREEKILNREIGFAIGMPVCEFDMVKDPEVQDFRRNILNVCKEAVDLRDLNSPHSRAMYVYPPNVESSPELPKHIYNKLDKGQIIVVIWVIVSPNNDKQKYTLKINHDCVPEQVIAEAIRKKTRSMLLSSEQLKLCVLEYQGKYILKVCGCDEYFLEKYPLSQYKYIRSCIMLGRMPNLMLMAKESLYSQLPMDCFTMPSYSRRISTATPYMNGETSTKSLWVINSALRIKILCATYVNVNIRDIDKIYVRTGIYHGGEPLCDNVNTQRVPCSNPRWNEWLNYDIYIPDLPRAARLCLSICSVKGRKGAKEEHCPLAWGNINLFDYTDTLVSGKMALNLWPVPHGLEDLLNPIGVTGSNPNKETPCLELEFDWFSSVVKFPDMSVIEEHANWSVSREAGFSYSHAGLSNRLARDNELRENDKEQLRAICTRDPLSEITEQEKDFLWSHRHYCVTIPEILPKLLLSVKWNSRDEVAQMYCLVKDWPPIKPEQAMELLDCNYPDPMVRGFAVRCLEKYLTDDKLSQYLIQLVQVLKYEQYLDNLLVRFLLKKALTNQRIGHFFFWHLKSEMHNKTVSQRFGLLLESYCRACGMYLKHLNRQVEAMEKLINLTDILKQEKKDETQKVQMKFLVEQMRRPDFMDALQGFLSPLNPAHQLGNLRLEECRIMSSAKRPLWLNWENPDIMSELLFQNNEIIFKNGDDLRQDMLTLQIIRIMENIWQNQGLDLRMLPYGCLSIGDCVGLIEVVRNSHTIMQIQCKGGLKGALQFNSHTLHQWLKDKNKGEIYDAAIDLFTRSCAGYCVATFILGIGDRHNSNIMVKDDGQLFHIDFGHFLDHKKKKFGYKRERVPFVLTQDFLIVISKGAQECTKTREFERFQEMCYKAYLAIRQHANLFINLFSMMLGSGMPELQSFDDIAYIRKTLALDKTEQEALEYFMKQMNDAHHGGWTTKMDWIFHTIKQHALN
- assay-method-text: Inhibition of GST-tagged bovine p110-alpha expressed in SF9/Baculovirus system by SPA
measurement-type: IC50 (nM)
Output spec: scalar in nM, unitless text.

Req: Dear colleague, I am looking for the recorded IC50 of the following molecule: CCOC(=O)c1ccc2ncc(/C=N/N(C)S(=O)(=O)c3cc([N+](=O)[O-])ccc3C)n2c1
Resp: 340

Req: I am curious: what IC50 value has been reported for C/C(=N\N(C)S(=O)(=O)c1cc([N+](=O)[O-])ccc1C)c1cnc2ccc(Br)cn12 ?
Resp: 81

Req: Please look up its IC50: Cc1ccc([N+](=O)[O-])cc1S(=O)(=O)N(C)/N=C/c1cnc2ccc(C(N)=O)cn12
Resp: 780

----------
- Tested on: A-375
- assay-method-text: Inhibition of serum-induced proliferation of human A375 cells
- Format: functional, cell-based
Field 'label' (enum: YES / NO). Set to YES when IC50 is strictly under 90 nM; else NO.

Examples with answers:
- line-notation: "Cc1ccc([N+](=O)[O-])cc1S(=O)(=O)N(C)/N=C/c1cnc2ccc(C#N)cn12"
  class-name: "YES"
- line-notation: "Cc1ccc([N+](=O)[O-])cc1S(=O)(=O)N(C)/N=C/c1cnc2ccc(Cl)cn12"
  class-name: "YES"
- line-notation: "Cc1ccc([N+](=O)[O-])cc1S(=O)(=O)N(C)/N=C/c1cnc2ccc(Br)cn12.Cl"
  class-name: "YES"
- line-notation: "Cc1ccc2ncc(/C=N/N(C)S(=O)(=O)c3cc([N+](=O)[O-])ccc3C)n2c1"
  class-name: "NO"
- line-notation: "C/C(=N\\NS(=O)(=O)c1cc([N+](=O)[O-])ccc1C)c1cnc2ccc(Br)cn12"
  class-name: "NO"
- line-notation: "CCOC(=O)c1ccc2ncc(/C=N/N(C)S(=O)(=O)c3cc([N+](=O)[O-])ccc3C)n2c1"
  class-name: "NO"
- line-notation: "Cc1ccc([N+](=O)[O-])cc1S(=O)(=O)n1ccc(-c2c(C)nc3ccc(Br)cn23)n1"
  class-name: "NO"

Kindly consider the entry below.
Req: Hello, is IC50 of the following molecule strictly smaller than 90 nM? Cc1nc2ccccn2c1-c1ccn(S(=O)(=O)c2ccc(F)cc2)n1
Resp: NO
